# experimental.target: Hepatocyte Growth Factor (HGF), human (human, UniProt P14210 32-728)
# Sequence (P14210 32-728): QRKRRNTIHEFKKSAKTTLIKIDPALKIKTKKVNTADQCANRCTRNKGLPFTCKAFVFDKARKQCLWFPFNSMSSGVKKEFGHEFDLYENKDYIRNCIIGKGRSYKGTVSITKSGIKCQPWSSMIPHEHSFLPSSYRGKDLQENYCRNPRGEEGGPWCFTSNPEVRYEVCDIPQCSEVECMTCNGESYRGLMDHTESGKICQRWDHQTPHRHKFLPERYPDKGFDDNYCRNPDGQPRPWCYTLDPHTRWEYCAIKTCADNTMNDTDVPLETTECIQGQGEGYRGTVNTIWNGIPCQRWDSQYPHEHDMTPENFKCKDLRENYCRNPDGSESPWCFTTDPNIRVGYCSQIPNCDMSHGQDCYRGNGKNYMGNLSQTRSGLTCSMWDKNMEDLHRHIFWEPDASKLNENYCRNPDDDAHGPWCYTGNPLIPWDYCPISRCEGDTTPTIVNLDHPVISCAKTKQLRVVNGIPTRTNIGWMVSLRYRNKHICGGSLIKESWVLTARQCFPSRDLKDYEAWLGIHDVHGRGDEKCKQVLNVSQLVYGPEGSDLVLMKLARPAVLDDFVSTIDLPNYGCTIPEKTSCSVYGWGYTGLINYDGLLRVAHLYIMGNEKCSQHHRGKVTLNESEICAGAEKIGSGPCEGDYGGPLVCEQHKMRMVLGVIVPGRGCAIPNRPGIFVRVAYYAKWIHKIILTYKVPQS
# assay.comment: ELISA
reported.metric: EC50 (nM)

# binder, readout.units, measured.number
records = [
    ("HC 9/SLC 15 (antibody) chain 1: GQGTLVTVSSASTKGPSVFQPVLHQPPAMSSALGTTIRLTCTLRNDHDIGVYSVYWYQQRPGHPPRFLLRYFSQSDKSQGPQVPPRFSGSKDVARNRGYLSISELQPEDEAMYYCAMGARSRCWPRGFQSKHNSVTHVFGSGTQLTVLSQPKATPSVTLFPPSSEELQANKATLVCLMNDFYPGILTVTWKADGTPITQGVEMTTPSKQSNNKYAASSYLSLTPEQWRSRRSYSCQVMHEGSTVEKTVAPAECS chain 2: MSWAPVLLMLFVYCTGCGPQPVLHQPPAMSSALGTTIRLTCTLRNDHDIGVYSVYWYQQRPGHPPRFLLRYFSQSDKSQGPQVPPRFSGSKDVARNRGYLSISVTHVFGSGTQLTVLSQPKATPSVTGGGGSQVQLVQ", "nM", 0.049),
    ("HC 5/SLC 8 (antibody) chain 1: GQGTLVTVSSASTKGQPVLHQPPAMSSALGTTIRLTCTLRNDHDIGVYSVYWYQQRPGHPPRFLLRYFSQSDKSQGPQVPPRFSGSKDVARNRGYLSISELQPEDEAMYYCAMGARSRCWPRGFQSKHNSVTHVFGSGTQLTVLSQPKATPSVTLFPPSSEELQANKATLVCLMNDFYPGILTVTWKADGTPITQGVEMTTPSKQSNNKYAASSYLSLTPEQWRSRRSYSCQVMHEGSTVEKTVAPAECS chain 2: MSWAPVLLMLFVYCTGCGPQPVLHQPPAMSSALGTTIRLTCTLRNDHDIGVYSVYWYQQRPGHPPRFLLRYFSQSDKSQGPQVPPRFSGSKDVARNRGYLSISVTHVFGSGTQLTVLSQPKATPSQVQLVQ", "nM", 0.055),
]
